# TESTED_TARGET: Human Pancreatic Chymotrypsin (Homo sapiens, UniProt P17538)
# Sequence (P17538 19-263): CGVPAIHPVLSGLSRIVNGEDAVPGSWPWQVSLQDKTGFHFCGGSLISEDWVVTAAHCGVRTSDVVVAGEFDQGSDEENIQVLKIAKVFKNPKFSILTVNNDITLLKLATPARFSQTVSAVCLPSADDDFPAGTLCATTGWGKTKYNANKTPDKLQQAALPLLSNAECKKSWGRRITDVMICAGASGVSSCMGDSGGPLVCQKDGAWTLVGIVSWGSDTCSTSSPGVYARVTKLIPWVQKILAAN

| COMPOUND | IC50 |
| --- | --- |
| CC(C)(C)C(=O)Oc1ccc(S(=O)(=O)Nc2ccccc2C(=O)NCC(=O)O)cc1 [Sivelestat] | > 10 µM |
